This collection of values is drawn from patent US20240150293A1.

- tested.system: Mcl-1 protein (UniProtKB Q07820) (Homo sapiens (Human), UniProt Q07820)
- Sequence (Q07820 whole entry): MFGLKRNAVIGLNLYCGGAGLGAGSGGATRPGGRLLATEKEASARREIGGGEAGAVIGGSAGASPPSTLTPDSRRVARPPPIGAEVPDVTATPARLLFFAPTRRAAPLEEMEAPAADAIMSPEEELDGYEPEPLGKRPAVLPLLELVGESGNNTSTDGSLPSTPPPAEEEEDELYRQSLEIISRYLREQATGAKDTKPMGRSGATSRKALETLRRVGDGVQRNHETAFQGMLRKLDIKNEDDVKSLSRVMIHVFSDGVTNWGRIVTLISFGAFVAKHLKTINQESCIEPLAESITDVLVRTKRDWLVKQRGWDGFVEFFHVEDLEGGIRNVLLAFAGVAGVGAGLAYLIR
- test.summary: Inhibition of Mcl-1 by the fluorescence polarisation assay (Example A, Method A)
- test.settings: fluorescence polarization assay
assay.readout: Ki (nM)
All answers are understood in nM, so give the number only.

Query O=C(O)[C@]1(Nc2cccc(Cl)c2)CC[C@@]2(CC1)c1ccccc1CC2CCOc1ccccc1 (stereo partly shown) yields Ki of 226

Query Cc1c[nH]c2nccc(OCCCC3Cc4ccccc4[C@]34CC[C@@](Nc3cccc(Cl)c3)(C(=O)O)CC4)c12 (stereo partly shown) yields Ki of 110

Query CCC1Cc2ccccc2C12CCC(Nc1cccc(Br)c1)(C(=O)O)CC2 (stereo not shown) yields Ki of 816

Query Cc1c[nH]c2cccc(OCCC[C@H]3Cc4ccccc4[C@]34CC[C@@](Nc3cccc(Cl)c3)(C(=O)O)CC4)c12 yields Ki of 759

----------
- tested.system: Mcl-1 protein (UniProtKB Q07820) (Homo sapiens (Human), UniProt Q07820)
- test.summary: Inhibition of Mcl-1 by the fluorescence polarisation assay (Example A, Method A)
- test.settings: fluorescence polarization assay
Exercise: state measured pKi for each of the compounds provided.
Units for pKi: none; it is -log10 of a concentration expressed in mol/L.

Query CC1CCc2nccc(OC[C@H](C)CC3Cc4ccccc4[C@]34CC[C@@](Nc3cccc(Cl)c3)(C(=O)O)CC4)c21 (single isomer, unassigned) [Example 600] yields pKi of 8.37

Query COc1ccc(N2C(=O)c3ccccc3[C@]23CC[C@@](Nc2cccc(Br)c2)(C(=O)O)CC3)cc1 [Example 33] yields pKi of 4.92

Query O=C(O)[C@]1(Nc2cccc(Cl)c2)CC[C@]2(CC1)C(c1ccccc1)=Cc1ccccc12 [Example 305] yields pKi of 6.18

Query CC[C@H](COc1cccnc1)C[C@H]1Cc2ccccc2[C@]12CC[C@@](Nc1cccc(Cl)c1)(C(=O)O)CC2 [Example 540] yields pKi of 6.73

----------
Exercise: state measured Cleaved PARP (fold to control) for each of the compounds provided.
- Tested on: AMO-1 multiple myeloma xenograft
- test.summary: Quantification of the cleaved form of PARP in vivo, per os (Example C)
- Set-up: species or system SCID mice
- test.settings: 120 mpk, single dose per os, tumors recovered 16 hours after dosing

Query C[C@@H](COc1ccnc2c1[C@H](C)CCC2)CN1Cc2cc3c(cc2[C@]12CC[C@@](Nc1cccc(Cl)c1)(C(=O)O)CC2)OCO3 yields Cleaved PARP (fold to control) of 1.4 fold to control

Query Cc1c(Cl)cccc1N[C@]1(C(=O)O)CC[C@]2(CC1)c1ccccc1C[C@@H]2C[C@@H](C)COc1ccnc2c1[C@H](C)CCC2 yields Cleaved PARP (fold to control) of 12.6 fold to control

Query Cc1cc2c(cc1C)[C@]1(CC[C@@](Nc3cccc(Cl)c3)(C(=O)O)CC1)[C@@H](C[C@@H](C)COc1ccnc3c1[C@H](C)CCC3)C2 yields Cleaved PARP (fold to control) of 29.1 fold to control

Query C[C@@H](COc1ccnc2c1[C@H](C)CCC2)CN1Cc2cc(F)ccc2[C@]12CC[C@@](Nc1ccc(F)c(Cl)c1)(C(=O)O)CC2 yields Cleaved PARP (fold to control) of 5 fold to control

Query C[C@@H](COc1ccnc2c1[C@H](C)CCC2)C[C@H]1Cc2cc(F)ccc2[C@]12CC[C@@](Nc1cccc(Cl)c1)(C(=O)O)CC2 yields Cleaved PARP (fold to control) of 30.3 fold to control

Query COCCOc1ccc2c(c1)[C@]1(CC[C@@](Nc3cccc(Cl)c3)(C(=O)O)CC1)[C@@H](C[C@@H](C)COc1ccnc3c1[C@H](C)CCC3)C2 yields Cleaved PARP (fold to control) of 12.1 fold to control

Query COc1cc2c(cc1Cl)C[C@H](C[C@@H](C)COc1ccnc3c1[C@H](C)CCC3)[C@]21CC[C@](Nc2cccc(Cl)c2)(C(=O)O)CC1 yields Cleaved PARP (fold to control) of 4.6 fold to control

Query COC(C)(C)c1ccc2c(c1)[C@]1(CC[C@@](Nc3cccc(Cl)c3)(C(=O)O)CC1)[C@@H](C[C@@H](C)COc1ccnc3c1[C@H](C)CCC3)C2 yields Cleaved PARP (fold to control) of 6.3 fold to control
